# reported self-cleavage; entries follow
B1: CPEB3 Ribozyme (parent)
chain: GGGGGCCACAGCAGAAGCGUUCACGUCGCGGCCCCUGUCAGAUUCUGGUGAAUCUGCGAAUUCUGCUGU

Variants of: B1
test: self-cleavage, relative activity (ratio to wild type); higher = more cleavage; co-transcriptional
quantity: self-cleavage

>>> df
   variant_descriptor  observed_result
0           U20G A40G            0.169
1            G4A G50C            0.808
2            G4A A59G            0.749
3           G14C U21A            0.477
4           C12A U46C            0.609
5           G30C U69C            0.995
6            C6A C35A            0.114
